- Test system: redroot pigweed (Amaranthus retrofiexus, AMARE)
- method: Greenhouse herbicide screen, pre-emerge application, phytotoxicity rating
- Assay type: in vivo
- conditions-used: PRE emergent, 63 g ai/ha, 14 days after application, rating scale 0-100
metric: phytotoxicity rating AMARE
The answer should be written as a number, with no unit following it.

# get_value(readout='phytotoxicity rating AMARE', item= CC(=NN=C(OS(C)(=O)=O)c1cc(-n2c(=O)cc(C(F)(F)F)n(C)c2=O)c(F)cc1Cl)C(C)(C)C )
100

# get_value(readout='phytotoxicity rating AMARE', item= CC(=O)OC(=NN(C)C)c1cc(-n2c(=O)cc(C(F)(F)F)n(C)c2=O)ccc1Cl )
100

# get_value(readout='phytotoxicity rating AMARE', item= CC(=O)OC(=NN=C(C)C(C)(C)C)c1cc(-n2c(=O)cc(C(F)(F)F)n(C)c2=O)c(F)cc1Cl )
100

***
# get_value(readout='phytotoxicity rating AMARE', item= CC1CCCC(C)N1NC(=O)c1cc(-n2c(=O)cc(C(F)(F)F)n(C)c2=S)c(F)cc1Cl (stereo not drawn) )
100

# get_value(readout='phytotoxicity rating AMARE', item= CC(=NN=C(OC(=O)C(Cl)Cl)c1cc(-n2c(=O)cc(C(F)(F)F)n(C)c2=O)c(F)cc1Cl)C(C)(C)C )
100

# get_value(readout='phytotoxicity rating AMARE', item= Cn1c(C(F)(F)F)cc(=O)n(-c2cc(C(=O)NN(Cc3ccccc3)Cc3ccccc3)c(Cl)cc2F)c1=O )
100

Just for reference, patent US6770597B2 is where these values come from.
